B1: r16_88_TrROS_Hall (parent)
chain: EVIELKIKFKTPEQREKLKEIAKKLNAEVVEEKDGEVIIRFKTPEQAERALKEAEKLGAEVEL

variants of: B1; assay: folding stability dG (cDNA display proteolysis); higher = more stable; settings: PBS, room temperature
Endpoint: folding stability dG (kcal/mol)

{"Variant Name": "K52H", "Assay Value": 4.31}
{"Variant Name": "G58C", "Assay Value": 4.28}
{"Variant Name": "D34N", "Assay Value": 4.3}
{"Variant Name": "L18V", "Assay Value": 4.26}
{"Variant Name": "L57C", "Assay Value": 4.2}
{"Variant Name": "K10S", "Assay Value": 4.16}
{"Variant Name": "K8E", "Assay Value": 3.87}
{"Variant Name": "R40M", "Assay Value": 4.64}
{"Variant Name": "A54G", "Assay Value": 4.09}
{"Variant Name": "D34C", "Assay Value": 4.42}
{"Variant Name": "A59M", "Assay Value": 4.39}
{"Variant Name": "L51A", "Assay Value": 4.43}
{"Variant Name": "T43S", "Assay Value": 4.53}
{"Variant Name": "L63E", "Assay Value": 4.22}
{"Variant Name": "N26H", "Assay Value": 4.24}
{"Variant Name": "L5N", "Assay Value": 3.85}
{"Variant Name": "E16I", "Assay Value": 4.38}
{"Variant Name": "A27L", "Assay Value": 4.45}
{"Variant Name": "G58R", "Assay Value": 4.27}
{"Variant Name": "A54T", "Assay Value": 4.19}
{"Variant Name": "E32N", "Assay Value": 4.43}
{"Variant Name": "L25Y", "Assay Value": 4.91}
